Target or test system: furin, P09958;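 further: purified furin at 1:10 enzyme:substrate in 50 mM HEPES pH 7.5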
Sequence (P09958 whole entry): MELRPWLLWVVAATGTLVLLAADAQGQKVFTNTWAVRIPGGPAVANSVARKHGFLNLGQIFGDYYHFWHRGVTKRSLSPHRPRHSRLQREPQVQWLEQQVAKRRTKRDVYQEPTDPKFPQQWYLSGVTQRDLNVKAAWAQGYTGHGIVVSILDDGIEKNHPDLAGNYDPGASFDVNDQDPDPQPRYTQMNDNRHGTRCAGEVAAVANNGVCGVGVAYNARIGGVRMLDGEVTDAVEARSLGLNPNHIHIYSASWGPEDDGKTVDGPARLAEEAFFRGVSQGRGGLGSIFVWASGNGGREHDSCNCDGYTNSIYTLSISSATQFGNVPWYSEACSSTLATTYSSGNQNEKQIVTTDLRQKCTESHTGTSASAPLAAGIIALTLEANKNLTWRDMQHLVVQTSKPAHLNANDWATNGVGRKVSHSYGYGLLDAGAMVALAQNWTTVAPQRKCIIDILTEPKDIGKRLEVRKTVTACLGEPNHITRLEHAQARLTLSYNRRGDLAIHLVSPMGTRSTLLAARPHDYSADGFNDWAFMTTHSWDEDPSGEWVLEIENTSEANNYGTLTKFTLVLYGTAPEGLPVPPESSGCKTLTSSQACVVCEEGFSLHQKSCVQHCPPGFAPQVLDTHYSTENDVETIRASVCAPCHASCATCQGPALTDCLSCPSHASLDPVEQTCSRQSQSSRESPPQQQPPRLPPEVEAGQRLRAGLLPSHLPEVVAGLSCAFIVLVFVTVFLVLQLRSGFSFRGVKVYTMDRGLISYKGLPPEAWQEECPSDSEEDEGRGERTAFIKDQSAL
Procedure text: furin cleavage Z-score vs untreated control; higher = more cleavage, active = 3.5 or more, inactive = 1 or less, 8 variable residues between constant flanks
Experimental setup: 15 min
Some of the results follow. No count for the full screen is at hand.
Reported furin cleavage Z-score values for the following sequences.
Note: the reply should be a number with no unit written.

[
  {
    "Sequence code": "CAVSVIPTSGAGNASASA [HC872]",
    "Measure": "furin cleavage Z-score",
    "Reading": -1.43
  }
]

-- ask I would be grateful if you could share the reported furin cleavage Z-score for CARKLRGETVAGNASASA [FS-2969] .
-- reply -0.954

-- ask I would be grateful if you could share the reported furin cleavage Z-score for CARMRRYADAAGNASASA [FS-2355] .
-- reply 7.7

-- ask I would be grateful if you could share the reported furin cleavage Z-score for CARLRRLLWIAGNASASA [FS-2044] .
-- reply -0.859
